# ASSAY_NAME: Half life in DIO wild type mouse liver at 10 mg/kg, po qd treated for 40 days
# Assay type: ADME, organism-based
# CONDITION_INFO: time 40 day
REPORTED_METRIC: half-life (h)
Numbers only, in h.

Query: Fill in reported half-life for this entry: "COc1ncc(-c2ccc(C(=O)O)cc2C)cc1-c1ccc(C(F)(F)F)cc1[C@@H]1CC[C@H]2[C@@H](c3cc(C(F)(F)F)cc(C(F)(F)F)c3)OC(=O)N12"
Response: 76.8

* * *

# ASSAY_NAME: Terminal half life in Beagle dog at 0.5 mg/kg, iv
# Type: ADME, organism-based, Canis lupus familiaris
# CONDITION_INFO: in vivo, read-out: beta t1/2 (converted)
REPORTED_METRIC: half-life

Query: Fill in reported half-life for this entry: "COc1ncc(-c2ccc(C(=O)O)cc2C)cc1-c1ccc(C(F)(F)F)cc1[C@@H]1CC[C@H]2[C@@H](c3cc(C(F)(F)F)cc(C(F)(F)F)c3)OC(=O)N12"
Response: 15 h

* * *

# ASSAY_NAME: Half life in lean wild type mouse liver at 10 mg/kg, po qd treated for 40 days
# Assay type: ADME, organism-based
# CONDITION_INFO: time 40 day
REPORTED_METRIC: half-life (h)
Answers are plain numbers, in h.

Query: Fill in reported half-life for this entry: "COc1ncc(-c2ccc(C(=O)O)cc2C)cc1-c1ccc(C(F)(F)F)cc1[C@@H]1CC[C@H]2[C@@H](c3cc(C(F)(F)F)cc(C(F)(F)F)c3)OC(=O)N12"
Response: 1.5

* * *

# ASSAY_NAME: Terminal half life in WH rat at 1 mg/kg, iv
# Assay type: ADME, organism-based
# CONDITION_INFO: in vivo, read-out: beta t1/2 (converted)
REPORTED_METRIC: half-life
The reply should read as a number followed by its unit.

Query: Fill in reported half-life for this entry: "COc1ncc(-c2ccc(C(=O)O)cc2C)cc1-c1ccc(C(F)(F)F)cc1[C@@H]1CC[C@H]2[C@@H](c3cc(C(F)(F)F)cc(C(F)(F)F)c3)OC(=O)N12"
Response: 8.1 h

* * *

Can you tell me clearance for the items I'm about to list?
# ASSAY_NAME: Clearance in CD1 mouse at 1 mg/kg, iv and 2 mg/kg, po
# Type: ADME, organism-based
# CONDITION_INFO: in vivo
One number for each entry, in mL/min/kg.

{"SUBSTANCE_SMILES": "COc1ncc(-c2ccc(C(=O)O)cc2C)cc1-c1ccc(C(F)(F)F)cc1[C@@H]1CC[C@H]2[C@@H](c3cc(C(F)(F)F)cc(C(F)(F)F)c3)OC(=O)N12", "clearance / mL/min/kg": 2.6}

List reported clearance for each of these compounds:
1. COc1ccc(-c2ccc(C(=O)O)cc2C)cc1-c1cnc(N(C)C)nc1[C@@H]1CC[C@H]2[C@@H](c3cc(C(F)(F)F)cc(C(F)(F)F)c3)OC(=O)N12
2. COc1cc(F)c(-c2ccc(C(=O)O)cc2C)cc1-c1ccc(C(F)(F)F)cc1[C@@H]1CC[C@H]2[C@@H](c3cc(C(F)(F)F)cc(C(F)(F)F)c3)OC(=O)N12

Response:
[33, 6.6]

* * *

# ASSAY_NAME: Tmax in WH rat at 2 mg/kg, po
# Format: ADME, organism-based
# CONDITION_INFO: in vivo
REPORTED_METRIC: Tmax (h)
Numbers only, in h.

Query: Fill in reported Tmax for this entry: "COc1ncc(-c2ccc(C(=O)O)cc2C)cc1-c1ccc(C(F)(F)F)cc1[C@@H]1CC[C@H]2[C@@H](c3cc(C(F)(F)F)cc(C(F)(F)F)c3)OC(=O)N12"
Response: 4

* * *

# ASSAY_NAME: Plasma clearance in rhesus monkey at 0.5 mg/kg, iv
# Assay type: ADME, organism-based, Macaca mulatta
REPORTED_METRIC: clearance (mL/min/kg)
Give bare numbers, in mL/min/kg.

Query: Fill in reported clearance for this entry: "COc1ncc(-c2ccc(C(=O)O)cc2C)cc1-c1ccc(C(F)(F)F)cc1[C@@H]1CC[C@H]2[C@@H](c3cc(C(F)(F)F)cc(C(F)(F)F)c3)OC(=O)N12"
Response: 0.39

* * *

Can you tell me bioavailability for the items I'm about to list?
# ASSAY_NAME: Oral bioavailability in C57BL/6 mouse at 2 mg/kg
# Format: ADME, organism-based
# CONDITION_INFO: in vivo
Answers are plain numbers, in %.

List reported bioavailability for each of these compounds:
1. Cc1cc(C(=O)O)ccc1-c1ccc(Cl)c(-c2ccc(C(F)(F)F)cc2CN2C(=O)O[C@H](c3cc(C(F)(F)F)cc(C(F)(F)F)c3)[C@@H]2C)c1
2. COc1ccc(C(C)C)cc1-c1ccc(C(F)(F)F)cc1CN1C(=O)O[C@H](c2cc(C(F)(F)F)cc(C(F)(F)F)c2)[C@@H]1C
3. COc1ccc(-c2ccc(C(=O)O)cc2C)cc1-c1ccc(C(F)(F)F)cc1CN1C(=O)O[C@H](c2cc(C(F)(F)F)cc(C(F)(F)F)c2)[C@@H]1C

Response:
1. 43
2. 17
3. 65

* * *

# ASSAY_NAME: Oral bioavailability in high fat diet fed dog at 1 mg/kg in Imwitor/Tween
# Type: ADME, organism-based, Canis lupus familiaris
# CONDITION_INFO: in vivo
REPORTED_METRIC: bioavailability (%)
One number for each entry, in %.

Query: Fill in reported bioavailability for this entry: "COc1ncc(-c2ccc(C(=O)O)cc2C)cc1-c1ccc(C(F)(F)F)cc1[C@@H]1CC[C@H]2[C@@H](c3cc(C(F)(F)F)cc(C(F)(F)F)c3)OC(=O)N12"
Response: 48

* * *

# ASSAY_NAME: Cmax in fasted dog at 1 mg/kg, po in 0.5% methocel
# Type: ADME, organism-based, Canis lupus familiaris
# Parameters: route oral, dose 1 mg/kg
# CONDITION_INFO: in vivo
REPORTED_METRIC: Cmax (nM)
Give bare numbers, in nM.

Query: Fill in reported Cmax for this entry: "COc1ncc(-c2ccc(C(=O)O)cc2C)cc1-c1ccc(C(F)(F)F)cc1[C@@H]1CC[C@H]2[C@@H](c3cc(C(F)(F)F)cc(C(F)(F)F)c3)OC(=O)N12"
Response: 500

* * *

Can you tell me logD for the items I'm about to list?
# ASSAY_NAME: Lipophilicity, logD of the compound at pH 7.3 by HPLC analysis
# Format: physicochemical
# CONDITION_INFO: buffer

Illustrative cases are given below, each with its answer.
{"SUBSTANCE_SMILES": "COc1ccc(-c2ccc(C(=O)O)cc2C)cc1-c1cnc(N(C)C)nc1CN1C(=O)O[C@H](c2cccc(OC(F)(F)F)c2)[C@@H]1C", "DATA_VALUE": 4.3}
{"SUBSTANCE_SMILES": "COc1ccc(-c2ccc(C(=O)O)cc2C)cc1-c1cnc(N2CCOCC2)nc1CN1C(=O)O[C@H](c2cc(C(F)(F)F)cc(C(F)(F)F)c2)[C@@H]1C", "DATA_VALUE": 4.8}

# context switch: different molecule, same logD
Query: Fill in reported logD for this entry: "COc1ccc(-c2ccc(C(=O)O)cc2C)cc1-c1cnc(N2CCCC2)nc1CN1C(=O)O[C@H](c2cc(C(F)(F)F)cc(C(F)(F)F)c2)[C@@H]1C"
Response: 5.2

* * *

Can you tell me logD for the items I'm about to list?
# ASSAY_NAME: Lipophilicity, logD of the compound at pH 7.3 by HPLC analysis
# Assay type: physicochemical
# CONDITION_INFO: buffer
Answers are plain numbers.

{"SUBSTANCE_SMILES": "COc1cc(F)c(C(C)C)cc1-c1cnc(N(C)C)cc1[C@@H]1CC[C@H]2[C@@H](c3cc(C(F)(F)F)cc(C(F)(F)F)c3)OC(=O)N12", "logD": 7}
{"SUBSTANCE_SMILES": "COc1ncc(-c2ccc(C(=O)O)cc2C)cc1-c1cc(C(F)(F)F)c(OC)nc1CN1C(=O)O[C@H](c2cc(C(F)(F)F)cc(C(F)(F)F)c2)[C@@H]1C", "logD": 5.7}
{"SUBSTANCE_SMILES": "COc1ncc(-c2ccc(C(=O)O)cc2C)cc1-c1cc(C)c(C(F)(F)F)cc1[C@@H]1CC[C@H]2[C@@H](c3cc(C(F)(F)F)cc(C(F)(F)F)c3)OC(=O)N12", "logD": 5.8}
{"SUBSTANCE_SMILES": "COc1cc(F)c(C(C)C)cc1-c1ccc(C(F)(F)F)cc1[C@@H]1CC[C@H]2[C@@H](c3cccc(C(F)(F)F)c3)OC(=O)N12", "logD": 6.1}

# context switch: different compound, same logD
Query: Fill in reported logD for this entry: "COc1ccc([C@H]2C[C@H](C(=O)O)C2)cc1-c1ccc(C(F)(F)F)cc1[C@@H]1CC[C@H]2[C@@H](c3cc(C(F)(F)F)cc(C(F)(F)F)c3)OC(=O)N12"
Response: 5.1
